- target-desc: human BChE (Homo sapiens)
- Construct: human plasma BChE (Mechnikov Scientific Research Institute of Vaccines and Serums, St. Petersburg, Russia); purchased Mechnikov Scientific Research Institute of Vaccines and Serums, St. Petersburg, Russia; host or cells: human plasma (natural source)
- Sequence (P06276 29-602): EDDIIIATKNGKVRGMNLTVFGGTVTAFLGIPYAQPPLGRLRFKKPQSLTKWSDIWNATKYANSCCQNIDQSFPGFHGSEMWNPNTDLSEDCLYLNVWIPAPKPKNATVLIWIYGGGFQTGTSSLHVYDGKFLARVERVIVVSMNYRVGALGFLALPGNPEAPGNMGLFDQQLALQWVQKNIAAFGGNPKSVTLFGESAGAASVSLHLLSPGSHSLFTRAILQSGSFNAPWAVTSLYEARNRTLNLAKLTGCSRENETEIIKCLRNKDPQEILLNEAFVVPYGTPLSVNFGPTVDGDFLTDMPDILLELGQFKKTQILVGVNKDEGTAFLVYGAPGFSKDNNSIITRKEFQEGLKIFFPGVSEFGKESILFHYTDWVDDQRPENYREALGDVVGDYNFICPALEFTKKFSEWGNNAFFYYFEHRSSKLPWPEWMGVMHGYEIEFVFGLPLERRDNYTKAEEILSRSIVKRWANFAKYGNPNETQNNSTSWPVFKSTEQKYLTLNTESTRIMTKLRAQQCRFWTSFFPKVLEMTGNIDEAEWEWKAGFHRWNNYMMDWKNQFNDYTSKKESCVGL
- experimental-details: Inhibition of human plasma BChE, microplate Ellman method
- Assay type: biochemical
- condition-details: human BChE, Lineweaver–Burk plots
property: Type of Inhibition

Data request: Item under review: CC(C)n1c(=O)n(C(=O)NC2CC3CCC(C2)N3C)c2ccccc21 (centres unmarked) [Compound 15, reference compound] . Reported Type of Inhibition?
Data returned: competitive

Data request: Type of Inhibition for `CN(C)CCNC(=O)n1c(=O)n(C2CC2)c2ccccc21` ?
Data returned: non-competitive

Data request: Could you share which Type of Inhibition value was measured for CC(C)n1c(=O)n(C(=O)NC2CC3CCC(C2)N3C)c2cc(C(F)(F)F)ccc21 (centres unmarked) ?
Data returned: competitive

Data request: Which Type of Inhibition value belongs to `CCN(CC)CCNC(=O)n1c(=O)n(C(C)C)c2ccccc21` ?
Data returned: competitive

Continuing:
Data request: Quick one: Type of Inhibition of `CCN(CC)CCNC(=O)n1c(=O)n(C(C)(C)C)c2ccccc21.Cl` ?
Data returned: non-competitive

Data request: What value of Type of Inhibition has been recorded for this entry: `CCN(CC)CCNC(=O)n1c(=O)n(C2CC2)c2ccccc21`
Data returned: competitive

Data request: Look at this compound and give its reported Type of Inhibition. `CCN(CC)CCNC(=O)n1c(=O)n(C(C)C)c2ccc(C(F)(F)F)cc21`
Data returned: non-competitive
